For each record, write down the corresponding IC50.
target-desc: rat NaPi-2b (Rattus norvegicus)
Construct: expressed in transfected cells; host or cells: Xenopus oocytes injected with cRNA
Sequence (Q9JJ09 1-695): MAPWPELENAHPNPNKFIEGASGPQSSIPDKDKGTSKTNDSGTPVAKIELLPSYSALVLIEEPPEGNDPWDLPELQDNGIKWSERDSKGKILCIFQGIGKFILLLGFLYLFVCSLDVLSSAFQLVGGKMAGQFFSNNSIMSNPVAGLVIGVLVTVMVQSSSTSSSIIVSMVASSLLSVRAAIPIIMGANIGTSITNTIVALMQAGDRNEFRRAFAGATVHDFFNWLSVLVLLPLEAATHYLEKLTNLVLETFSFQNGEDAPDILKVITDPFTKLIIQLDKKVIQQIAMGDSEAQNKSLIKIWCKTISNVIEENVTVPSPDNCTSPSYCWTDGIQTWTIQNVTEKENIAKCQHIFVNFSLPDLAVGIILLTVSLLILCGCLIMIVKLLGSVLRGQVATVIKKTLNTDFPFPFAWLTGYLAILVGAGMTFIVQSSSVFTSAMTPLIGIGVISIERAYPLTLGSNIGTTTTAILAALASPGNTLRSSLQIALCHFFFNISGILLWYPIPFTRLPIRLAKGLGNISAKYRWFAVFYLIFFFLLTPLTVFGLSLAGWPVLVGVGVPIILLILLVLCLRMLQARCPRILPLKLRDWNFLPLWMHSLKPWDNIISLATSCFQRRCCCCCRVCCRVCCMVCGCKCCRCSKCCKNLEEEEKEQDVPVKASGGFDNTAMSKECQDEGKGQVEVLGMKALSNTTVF
experimental-details: Sodium-dependent phosphate uptake of Xenopus oocytes which expressed NaPi-2b (32P)
Assay type: cell-based
experimental-conditions: Xenopus oocytes expressing rat NaPi-2b, 32P radioactive phosphorus; read-out: IC50 (phosphate uptake inhibitory activity)

For the molecule Cc1csc(NC(=O)c2cccc(CN3CCC(CO)CC3)c2)c1C(=O)N/N=C/c1ccc(F)cc1 , report IC50.
< 3 µM

For the molecule COc1ccc(/C=N/NC(=O)c2cc3ccccc3cc2NC(=O)c2cccc(CN3CCN(CCO)CC3)c2)cc1 , report IC50.
< 3 µM

For the molecule CCN(CC)CCN(C)Cc1cccc(C(=O)Nc2ccc(I)cc2C(=O)N/N=C/c2cccc(C)c2)c1 , report IC50.
< 3 µM

For the molecule CCCN(CCC)c1ccc(NC(=O)c2cccc(CN(C)CCN(CC)CC)c2)c(C(=O)N/N=C/c2ccc(Cl)c(C(F)(F)F)c2)c1 , report IC50.
< 1 µM
